Measured Kb, listed per entry.
measurement.target: NPFF2 receptor (human NPFFR2 in CHO-RD-HGA16 cells) (Homo sapiens)
Construct: expressed in transfected cells
Sequence (Q9Y5X5 whole entry): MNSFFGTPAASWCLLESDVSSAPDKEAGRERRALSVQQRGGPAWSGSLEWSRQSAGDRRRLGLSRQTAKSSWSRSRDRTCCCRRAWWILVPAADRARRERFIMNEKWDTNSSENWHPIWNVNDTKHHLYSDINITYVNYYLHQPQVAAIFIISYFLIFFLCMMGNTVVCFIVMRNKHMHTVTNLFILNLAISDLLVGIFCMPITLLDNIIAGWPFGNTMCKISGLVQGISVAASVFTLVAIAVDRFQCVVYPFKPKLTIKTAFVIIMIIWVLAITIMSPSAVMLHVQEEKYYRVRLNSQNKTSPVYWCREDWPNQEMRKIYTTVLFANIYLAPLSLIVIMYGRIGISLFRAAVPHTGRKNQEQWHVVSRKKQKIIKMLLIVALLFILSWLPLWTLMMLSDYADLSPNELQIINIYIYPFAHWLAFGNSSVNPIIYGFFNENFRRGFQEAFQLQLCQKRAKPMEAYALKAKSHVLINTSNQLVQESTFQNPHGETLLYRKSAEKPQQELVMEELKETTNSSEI
protocol.description: Calcium mobilization functional Ke assay, NPFF2
Type: cell-based
protocol.conditions: Table 1; mean ± SEM; apparent dissociation constant vs NPFF; read-out: NPFF2 Ke
Express the result in µM but write the number alone.

Q: Value lookup for Kb; key = CCC(C)NC(=O)[C@@H]1C[C@H](NCc2ccc(OC)cc2)CN1Cc1ccccc1Cl (stereo partly drawn)
A: 3.68

Q: Value lookup for Kb; key = CCN(CC)C(=O)[C@@H]1C[C@H](NCc2ccc(OC)cc2)CN1Cc1ccccc1Cl
A: 4.93

Q: Value lookup for Kb; key = CCCNC(=O)[C@@H]1C[C@H](NCc2ccc(OC)cc2)CN1Cc1ccccc1Cl
A: 9.08

Q: Value lookup for Kb; key = CCCCCNC(=O)[C@@H]1C[C@H](NCc2ccc(OC)cc2)CN1Cc1ccccc1Cl
A: 3.09

Q: Value lookup for Kb; key = COc1ccc(CN[C@H]2C[C@@H](C(=O)NCCc3ccc(F)cc3)N(Cc3ccccc3Cl)C2)cc1
A: 9.88
